What Kd was measured for each of the following?
Tested System: T1, human CD8 on human T cells (human, UniProt P01732 22-235)
T1 construct: whole, on cells; the antibodies were raised against human CD8 alpha; also called CD8 on human CD8+ T cells; hCD8
T1 sequence (P01732 22-235): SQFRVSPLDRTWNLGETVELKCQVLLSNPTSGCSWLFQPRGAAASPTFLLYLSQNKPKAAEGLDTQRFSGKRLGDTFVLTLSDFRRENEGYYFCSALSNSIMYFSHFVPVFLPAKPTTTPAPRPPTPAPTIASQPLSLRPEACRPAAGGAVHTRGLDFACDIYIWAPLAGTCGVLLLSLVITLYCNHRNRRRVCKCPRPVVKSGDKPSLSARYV
Test Summary: flow cytometry on human CD8+ T cells, titration, apparent KD
Give bare numbers, in nM.

The following binders have reported results that may help.
humanized 03A01-VH2-VK3 (antibody, human IgG1, V domains shown, human IgG1 format; also called 03-VH2/VK3) VH: EVQFQESGPGLVKPSQTLSLTCTVSGYSITSDFAWNWIRQPPGKGLEWMGYISYSGDTNYNPSLRSRITISRDTSKNQFSLKLSSVTAADTAVYYCTIRGYYTDSAFVFWGQGTLVTVSS VL: DIQMTQSPSTLSASVGDRVTITCKASDHINNWLAWYQQKPGKAPKLLISGATSLETGVPSRFSGSGSGLEYTLTISSLQPDDFATYYCQQYWNSPFTFGQGTKLEIK
1.91
humanized 03A01-VH3-VK1 (antibody, human IgG1, V domains shown, human IgG1 format; also called 03-VH3/VK1) VH: EVQFQESGPGLVKPSQTLSLTCTVSGYSITSDFAWNWIRQPPGKGLEWMGYISYSGDTNYNPSLKSRVTISRDTSKNQFSLKLSSVTAADTAVYYCTIRGYYTDSAFVFWGQGTLVTVSS VL: DIQMTQSSSTLSVSLGDRVTITCKASDHINNWLAWYQQKPGKAPRLLISGATSLETGVPSRFSGSGSGLEYTLTISSLQPDDFATYYCQQYWNSPFTFGQGTKLEIK
1.65

# context switch: different binder, same Kd
Briefly, Kd measured for humanized 03A01-VH3-VK3 (antibody, human IgG1, V domains shown, human IgG1 format; also called 03-VH3/VK3) VH: EVQFQESGPGLVKPSQTLSLTCTVSGYSITSDFAWNWIRQPPGKGLEWMGYISYSGDTNYNPSLKSRVTISRDTSKNQFSLKLSSVTAADTAVYYCTIRGYYTDSAFVFWGQGTLVTVSS VL: DIQMTQSPSTLSASVGDRVTITCKASDHINNWLAWYQQKPGKAPKLLISGATSLETGVPSRFSGSGSGLEYTLTISSLQPDDFATYYCQQYWNSPFTFGQGTKLEIK : 1.98
